Biological target: Caspase-7 (Homo sapiens, UniProt P55210)
Sequence (P55210 whole entry): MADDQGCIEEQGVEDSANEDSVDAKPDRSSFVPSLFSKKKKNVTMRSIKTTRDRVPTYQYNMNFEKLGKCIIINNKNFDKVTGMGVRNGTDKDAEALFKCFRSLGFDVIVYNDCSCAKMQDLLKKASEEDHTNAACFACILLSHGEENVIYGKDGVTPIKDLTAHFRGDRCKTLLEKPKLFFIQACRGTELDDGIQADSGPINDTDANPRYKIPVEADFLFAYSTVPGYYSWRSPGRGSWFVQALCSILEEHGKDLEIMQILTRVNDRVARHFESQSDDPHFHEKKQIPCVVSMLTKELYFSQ
Assignment: determine reported Ki for the given compounds.
Give the value, in units of nM, as a plain number.

# input Suppose we examine the compound `CN(Cc1ccc(O)c(C(=O)O)c1)Cc1ccc(C(=O)N[C@@H](CC(=O)O)C(=O)CSCc2ccccc2Cl)s1` ; what Ki value has been reported?
# output 190

# input Next compound: `O=C(O)C[C@H](NC(=O)c1ccc(CNS(=O)(=O)c2ccc(O)c(C(=O)O)c2)s1)C(=O)CSCc1ccccc1Cl`
# output 130

# input Next compound: `O=C(O)C[C@H](NC(=O)c1cnc(CNS(=O)(=O)c2ccc(O)c(C(=O)O)c2)nc1)C(=O)CSCc1ccccc1Cl`
# output 90

# input Next compound: `O=C[C@H](CC(=O)O)NC(=O)c1ccc(CNS(=O)(=O)c2ccc(O)c(C(=O)O)c2)nc1`
# output 130

* * *

Target: Caspase-3 (Homo sapiens, UniProt P42574)
Sequence (P42574 29-175 limits assumed): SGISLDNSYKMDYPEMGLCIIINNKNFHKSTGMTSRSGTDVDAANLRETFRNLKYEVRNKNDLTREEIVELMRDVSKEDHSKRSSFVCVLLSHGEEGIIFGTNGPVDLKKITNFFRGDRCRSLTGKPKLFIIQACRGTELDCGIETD
Sequence (P42574 176-277 limits assumed): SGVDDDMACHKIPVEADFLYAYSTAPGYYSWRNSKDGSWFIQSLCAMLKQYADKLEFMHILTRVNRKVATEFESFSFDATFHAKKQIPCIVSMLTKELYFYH
pKi: −log10 of the molar value.
Outcome label depends on pKi relative to 7: at/above gives Yes, below gives No.

# input Reported pKi reaches at least 7 for `O=C[C@H](CC(=O)O)NC(=O)c1ccc(CNS(=O)(=O)c2ccc(O)c(C(=O)O)c2)nc1` ?
# output Yes

# input Next compound: `O=C[C@H](CC(=O)O)NC(=O)c1ccc(CNS(=O)(=O)c2ccc(O)c(C(=O)O)c2)cc1`
# output No

# input Next compound: `O=C(O)C[C@H](NC(=O)c1cnc(CNS(=O)(=O)c2ccc(O)c(C(=O)O)c2)nc1)C(=O)CSCc1ccccc1Cl`
# output Yes

* * *

Target: Caspase-2 (Homo sapiens)
Sequence (P42575 whole entry): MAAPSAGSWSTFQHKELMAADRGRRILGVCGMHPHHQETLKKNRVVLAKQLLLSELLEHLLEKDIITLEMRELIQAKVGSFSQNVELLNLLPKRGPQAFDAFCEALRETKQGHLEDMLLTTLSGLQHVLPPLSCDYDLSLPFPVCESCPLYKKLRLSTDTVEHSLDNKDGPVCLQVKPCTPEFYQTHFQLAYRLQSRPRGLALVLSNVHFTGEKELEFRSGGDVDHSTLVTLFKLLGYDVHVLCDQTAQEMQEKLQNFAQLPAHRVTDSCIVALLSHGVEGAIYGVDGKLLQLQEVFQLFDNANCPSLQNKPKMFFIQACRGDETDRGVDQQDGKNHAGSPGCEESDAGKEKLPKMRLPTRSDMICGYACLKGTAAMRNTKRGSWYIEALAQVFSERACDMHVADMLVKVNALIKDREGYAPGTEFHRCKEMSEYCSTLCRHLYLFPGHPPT
pKi: −log10 of the molar value.
Outcome label depends on pKi relative to 5: at/above gives class 1, below gives class 0.

# input Reported pKi reaches at least 5 for `O=C(O)C[C@H](NC(=O)c1ccc(CNS(=O)(=O)c2ccc(O)c(C(=O)O)c2)s1)C(=O)CSCc1ccccc1Cl` ?
# output class 0

# input Next compound: `Cc1cc(CNS(=O)(=O)c2ccc(O)c(C(=O)O)c2)sc1C(=O)N[C@@H](CC(=O)O)C(=O)CSCc1ccccc1Cl`
# output class 0

# input Next compound: `O=C[C@H](CC(=O)O)NC(=O)c1ccc(CNS(=O)(=O)c2ccc(O)c(C(=O)O)c2)nc1`
# output class 1

# input Next compound: `O=C[C@H](CC(=O)O)NC(=O)c1ccc(CNS(=O)(=O)c2ccc(O)c(C(=O)O)c2)s1`
# output class 0
